Test system: Escherichia coli TOP10
Experiment: shrunken log2 fold change of peptide-encoding DNA abundance (4.5 h post-induction vs induction); higher = less antimicrobial activity (less host growth inhibition)
Conditions: time post-induction: 4.5 h; library: site-saturation at positions 5, 18, 19, 20
reported.endpoint: shrunken log2 fold change

>  <input.sequence>
RRIRARPPRLPRPRPRPTWDPRP

>  <tested.on>
Escherichia coli TOP10

>  <reported.endpoint>
shrunken log2 fold change

>  <experimental.value>
0.604

$$$$
>  <input.sequence>
RRIRNRPPRLPRPRPRPGYMPRP

>  <tested.on>
Escherichia coli TOP10

>  <reported.endpoint>
shrunken log2 fold change

>  <experimental.value>
-0.281

$$$$
>  <input.sequence>
RRIRYRPPRLPRPRPRPDPCPRP

>  <tested.on>
Escherichia coli TOP10

>  <reported.endpoint>
shrunken log2 fold change

>  <experimental.value>
-0.0185

$$$$
>  <input.sequence>
RRIRFRPPRLPRPRPRPNDAPRP

>  <tested.on>
Escherichia coli TOP10

>  <reported.endpoint>
shrunken log2 fold change

>  <experimental.value>
0.186

$$$$
>  <input.sequence>
RRIRSRPPRLPRPRPRPFWIPRP

>  <tested.on>
Escherichia coli TOP10

>  <reported.endpoint>
shrunken log2 fold change

>  <experimental.value>
-0.299

$$$$
>  <input.sequence>
RRIRARPPRLPRPRPRPRFIPRP

>  <tested.on>
Escherichia coli TOP10

>  <reported.endpoint>
shrunken log2 fold change

>  <experimental.value>
-0.259

$$$$
>  <input.sequence>
RRIRLRPPRLPRPRPRPGPFPRP

>  <tested.on>
Escherichia coli TOP10

>  <reported.endpoint>
shrunken log2 fold change

>  <experimental.value>
0.137

$$$$
>  <input.sequence>
RRIRSRPPRLPRPRPRPTIIPRP

>  <tested.on>
Escherichia coli TOP10

>  <reported.endpoint>
shrunken log2 fold change

>  <experimental.value>
-0.35

$$$$
>  <input.sequence>
RRIRFRPPRLPRPRPRPRRGPRP

>  <tested.on>
Escherichia coli TOP10

>  <reported.endpoint>
shrunken log2 fold change

>  <experimental.value>
0.435

$$$$
>  <input.sequence>
RRIRKRPPRLPRPRPRPFPMPRP

>  <tested.on>
Escherichia coli TOP10

>  <reported.endpoint>
shrunken log2 fold change

>  <experimental.value>
0.0227

$$$$
>  <input.sequence>
RRIRYRPPRLPRPRPRPNAMPRP

>  <tested.on>
Escherichia coli TOP10

>  <reported.endpoint>
shrunken log2 fold change

>  <experimental.value>
-0.166

$$$$
>  <input.sequence>
RRIRLRPPRLPRPRPRPRCLPRP

>  <tested.on>
Escherichia coli TOP10

>  <reported.endpoint>
shrunken log2 fold change

>  <experimental.value>
0.18

$$$$
>  <input.sequence>
RRIRQRPPRLPRPRPRPHEPPRP

>  <tested.on>
Escherichia coli TOP10

>  <reported.endpoint>
shrunken log2 fold change

>  <experimental.value>
-0.00369

$$$$
>  <input.sequence>
RRIRNRPPRLPRPRPRPLQIPRP

>  <tested.on>
Escherichia coli TOP10

>  <reported.endpoint>
shrunken log2 fold change

>  <experimental.value>
-0.143

$$$$
>  <input.sequence>
RRIRPRPPRLPRPRPRPGCVPRP

>  <tested.on>
Escherichia coli TOP10;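 further: peptides expressed intracellularly from a pBAD plasmid library in pooled LB shake-flask culture, induced with 0.3% L-arabinose, DNA abundance read by NGS, three biological replicates, DESeq2 with apeglm shrinkage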

>  <reported.endpoint>
shrunken log2 fold change

>  <experimental.value>
0.447

$$$$
